Hello, the source for this data is the supplement of paper PMC9170038, in case you need it.

- Tested on: K4 kissing-loop RNA reporter
- Experiment Notes: apparent KD of K4 kissing-loop reporter; higher = weaker reporter binding
- Condition: Eterna round: R107; input ligand: none
The entries below are paired with their reported apparent KD of K4 kissing-loop reporter.
Attribute Measured: apparent KD of K4 kissing-loop reporter (nM)

Seq	Observed Result
CAUAGACAAGUGAUGUUUGUCAUAACCGAAGGAGCGUCUUUAAAGACAGGUAGGUCGCGGAUUAGUUAAGUUAUGAUUCUUUAUG [#19 K4 Arginine A Same State]	704
GAUUCUGUUCGAAAGAACGGAAUCACGGAAGGAGCGAGAGAAAUCUCAGGUAGGUCGCCGAAUUUUUGAUAGUGAUGUUAUCAUU [Arginine A K4 2]	388
GGCCGGAAGGCGAGCGCUCCCACUCCGGAAGGAGCGCCCGCAAGGGCAGGUAGGUCGCCGGAGUGAUGUUCCGGUGGAGGGCUCG [#2 Exclusion - Arginine A Attempt #20 (Inspired by Omei)]	379
UAUACGCUAGUGAUGUUGGCGAAGACUGAAGGAGCGUGCGAGAGUACAGGUAGGUCGCAGUCAGACAGAUUGUACCUGUCUUAUG [Arg A SS t10]	295
GUCAUCAGAUCGCAAGAUCUGAUAGCCGAUACCAGCGCGAAGGUGCGCCCUUGGCAGCGGCACCGAGUGAUGUUCGGUCAGACGA [#2 Same State - Theophylline A Attempt #5 (HarryS)]	514
GCCGUAGAUUGAAGGAGCGGGAUAGAGAAAGUGAUGUUUUCUCUUUGACGGCGUCCUCGAUCCCAGGUAGGUCGCAAUCUACGGC	81.2
AACCGUGUGGCGGCCGCCACUAGUCUCCAGUGAUGUUGGAGAGAUCACGUAAGUGAUCUCCGACAUAGGACCGGGCCAUAUGGAA [Same State - Tryptophan B (Freestyle 24)]	295
GUAACCUUGCUCGAGUGAUGUUCGAGCGAAGGAGCGCGAGAAAUCGCAGGUAGGUCGCGCUCGAAAUUUGAGCGAACAAUUAUUA [Arg A Ex t2]	138
GUCUCGAGUGAUGUUCGGGUCGAUUGGGAAGGAGCGCCCGGAAGGGCAGGUAGGUCGCCCGGACCGCGCGGGCAACCGCGCGGCC [#2 Same State - Arginine A Attempt #11 (HarryS)]	147
CAUACGCAUGGAGGAUAUGGGAUUACUCAUAUUACCCUGUAACAGGUAUCUCAGUGAUGUUGAGACUCAGAAGGCCAUGUGUAUG [Ex FMN B 23]	348
GUAGACGUACCUUCAGUGAUGUUGAAGGAUACCAGAUGUUACCACAUCCCUUGGCAGCCUUGGGAUAACAGUGAGUCGGAAUAUG [Uslediti]	158
GGUGACUACCAGAGGUGAUGUAUAGUAUCGCGAGGACCGGUACGGCCGCCACUCGUGAAGAGAAAGGAGUGAUGUUCCGUAAUGG [Kazoo C8]	323

====

- Tested on: K4 kissing-loop RNA reporter;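 also: bound reporter read as fluorescence of individual clusters on recovered sequencing chips by microscopy, with normalized cluster intensities fitted with a binding model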
- Experiment Notes: apparent KD of K4 kissing-loop reporter; higher = weaker reporter binding
- Condition: Eterna round: R107; input ligand: FMN 200 uM
Mark F for apparent KD of K4 kissing-loop reporter values under 200 nM, and T for everything at or above.

Seq	Label Value
UAAGAAUAAGUAGCAGUGAUGUUGCUACUGCGAGGACCGGUACGGCCGCCACUCGAGUCCUCGAAGCAUCACUGAACGAGGAAUA [whbob_SS_Tryp_A_m12]	T
GGUGUUGUUUGUGCUGUUUUCUUUGUUUCUCGAGGACCGGUACGGCCGCCACUCGAGUGAUGUUUGGGUAGUGAUGUUUGUUAGU [Bdazzled #1 Exc. TA]	T
AUUAACCUUUUAGCUAUAUUUUUAUGUGAUACCAGACAUGGCAUAGUCCCUUGGCAGCACAUUAUAUUUACGAGUGAUGUUCGAA [JR_SSTheophyA_Sub026]	T
CAUACGCAUGGAGGAUAUGAGAUUACUCAUAUCAUUUAAUAUUCUCAGUGAUGUUGAGAUUUAAACUCAGAAGGCCAUGUGUAUG [Ex FMN B 12]	T
AGACAUAUGACUGUAUGUUUCCAAGGUGUCAAGGAUAUAGUAAACACUAGAAGGUGAGAUCACAGGAGUGAUGUUCGAAAAUGGA [theeternabot_sameState_KL_FMN_A_14]	T
GGAUAGGACAGAGGAUAUCCUGAGGCAAGAAACUUGUCUCAUAAAGGAUGAAUCCUAGUGAUGUUAGGAGAAGGCUGUCCUAUCG [FmnBX 15 - #SwitchBubble #StaticStem #Palindromic]	F
UGUGCCAACAGUGAUACCAGCGUGGAGUGAUGUUCCGAGGAUCGGAGUGAUGUUCCGAAGCGCCCUUGGCAGCGCAGAAGCGCGA [Exclusion Theophylline B GF 26]	T
AAGGCAAUUCGAGGAUAUCACAUACACUCCUUGAAUCAAGGAGUGAUGUUCCUUGAAGUGUAUGCAUGAGAAGGCGAAUUGCCUU [#05 K4 FMN B Same State]	F
UGCUUAGUGAUGUUUGAUUUGGUGCAUGCAGAGGAUAUAGGGUGCUUUAGAAGGCUGAGGAGUGCGCCGAGUGAUGUUCGGCGCU [Exclusion FMN A GF11]	F
UAUAUAUGAUGUGAUACCAGUGAAAAGCCAGUGAUGUUGGAAGAACUGGUAUAUAAAUAACACCCUUGGCAGCACAAUCACGUAU [theophylline b exclusion]	T
